Experiment: Dog pharmacokinetics, oral gavage of suspension (0.5% methylcellulose in saline)
Format: in vivo
Settings: dog, plasma; male beagle dogs, 3 mg/kg, oral gavage suspension, mean
Method: In a follow-up study, the pharmacokinetics of tris salt of the compound of Formula I were investigated via oral gavage of a 0.5% methylcellulose in saline formulation. Two groups of animals were tested. In Group 1, three male beagle dogs were administered a single dose of 3 mg/kg tris salt. In Group 2, three male beagle dogs were administered a single dose of 30 mg/kg tris salt. Plasma was collected pre-dose, and at 0.5, 1, 2, 4, 8, 12 and 24 hours post-dose via puncture of peripheral veins. […]
Structures can show the parent of a compound that is named as a salt.
MEASUREMENT_KIND: AUC(0-t) (ng·h/mL)
Field format: number, assumed ng·h/mL, no unit text.

Ask: Given the entry CC(C)(OCc1cc(-c2cccc(OC3CCC3)c2)n(-c2ccccc2N2CCC2)n1)C(=O)O [Tris Salt] , report its measured AUC(0-t).
Result: 5080
